Each recorded value in this set is attributed to ChEMBL document CHEMBL4033772.

# method notes: Solubility of the compound in PBS at pH 6.5 at 50 uM after overnight incubation by LC-MS/MS method
# Type: physicochemical
attribute measured: solubility at 50 µM
Output should be the measured figure followed by the unit it is expressed in.

Answered cases to consult:
O=C(Nc1ccn2cc(-c3ccc(F)c(F)c3)nc2c1)N1CC[C@H](F)C1	49.9 µM
O=C(Nc1ccn2cc(-c3ccc(F)c(F)c3)nc2n1)N1CC[C@H](F)C1	42 µM
Cn1nc(C(C)(C)C)cc1C(=O)Nc1cc2nc(-c3ccc(F)c(F)c3)cn2cn1	7.6 µM
O=C(Nc1ccn2cc(-c3cccc(F)c3F)nc2c1)N1CC[C@H](F)C1	6.8 µM
O=C(Nc1ccn2cc(-c3cccc(F)c3)nc2c1)N1CC[C@H](F)C1	43.8 µM

Entry O=C(Nc1cc2nc(-c3ccc(F)c(F)c3)cn2cn1)N1CC[C@H](F)C1 , solubility at 50 µM reported as 2.4 µM

----------
# method notes: Cmax in Swiss Webster mouse at 50 mg/kg, po by LC-MS/MS analysis
# Type: ADME, organism-based
# Set-up: dose 50 mg/kg, route oral
# experimental setup: in vivo
attribute measured: Cmax
Please format your answer as a value with the unit trailing.

O=C(Nc1cc2nc(-c3ccc(F)c(F)c3)cn2cn1)N1CC[C@H](F)C1 yielded Cmax of 5.7 µM

----------
# method notes: Fraction unbound in Swiss Webster mouse plasma at 2 uM by LC-MS/MS analysis
# Format: ADME, cell-free
Lab note: anything with fraction unbound at 2 µM at or over 0.08 counts as met; the rest go in not met.

Cn1nc(C(C)(C)C)cc1C(=O)Nc1cc2nc(-c3ccc(F)c(F)c3)cn2cn1	not met
CC(C)NCC(O)COc1cccc2ccccc12 (configuration not stated)	met
O=C(Nc1ccn2cc(-c3cccc(F)c3)nc2c1)N1CC[C@H](F)C1	not met
O=C(Nc1ccn2cc(-c3ccc(F)c(F)c3)nc2c1)N1CC[C@H](F)C1	not met

*Q* Threshold query (fraction unbound at 2 µM >= 0.08) on O=C(Nc1ccn2cc(-c3cccc(F)c3F)nc2c1)N1CC[C@H](F)C1
*A* not met

*Q* Kindly determine if fraction unbound at 2 µM recorded for O=C(Nc1cc2nc(-c3ccc(F)c(F)c3)cn2cn1)N1CC[C@H](F)C1 is above or exactly 0.08.
*A* met

----------
# System: Liver
# method notes: Stability of the compound in mouse liver microsomes assessed as compound remaining by LC-MS/MS method
# Format: ADME, microsome
Documented Stability across a set of compounds
Unit % implied. Number only.

O=C(Nc1ccn2cc(-c3ccc(F)c(F)c3)nc2c1)N1CC[C@H](F)C1	100
Cn1nc(C(C)(C)C)cc1C(=O)Nc1cc2nc(-c3ccc(F)c(F)c3)cn2cn1	47.1
O=C(Nc1ccn2cc(-c3cccc(F)c3)nc2c1)N1CC[C@H](F)C1	84.5
O=C(Nc1cc2nc(-c3ccc(F)c(F)c3)cn2cn1)N1CC[C@H](F)C1	96

# evaluate next
Stability reading for O=C(Nc1ccn2cc(-c3cccc(F)c3F)nc2c1)N1CC[C@H](F)C1 : 86.3

----------
# method notes: Plasma concentration in BALB/c mouse subcutaneously infected with bioluminescent PpyRE9h expressing Trypanosoma cruzi Tulahuen […] at 50 mg/kg, po twice daily measured 1 hr post seventh dose
# Type: ADME, organism-based
attribute measured: concentration at 1 h (µM)
Lab book: enter the figure in µM, no units written.

The compound listed as O=C(Nc1cc2nc(-c3ccc(F)c(F)c3)cn2cn1)N1CC[C@H](F)C1 shows concentration at 1 h equal to 9
